- measurement.target: T1, human VEGF (hVEGF) (human, UniProt P15692 181-395)
- T1 construct: also called VEGF-A
- T1 sequence: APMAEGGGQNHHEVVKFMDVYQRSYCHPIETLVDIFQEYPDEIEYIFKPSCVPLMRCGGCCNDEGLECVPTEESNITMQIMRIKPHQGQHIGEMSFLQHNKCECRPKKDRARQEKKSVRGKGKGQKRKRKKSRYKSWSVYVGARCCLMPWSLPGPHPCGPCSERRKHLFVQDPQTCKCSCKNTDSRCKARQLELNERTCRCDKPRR
- assay.remarks: SPR single-cycle;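 note: fab variants injected over hVEGF immobilized on a CM5 chip (Biacore T200), threefold dilution series from 0.02 to 50 nM, kinetics fitted with a 1:1 Langmuir model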
property.measured: Fold change (relative to G6.31)

G6.31 HC-T68E (Fab, name in Kabat numbering, V domains shown, Fab) VH: EVQLVESGGGLVQPGGSLRLSCAASGFTISDYWIHWVRQAPGKGLEWVAGITPAGGYTYYADSVKGRFEISADTSKNTAYLQMNSLRAEDTAVYYCARFVFFLPYAMDYWGQGTLVTVSS VL: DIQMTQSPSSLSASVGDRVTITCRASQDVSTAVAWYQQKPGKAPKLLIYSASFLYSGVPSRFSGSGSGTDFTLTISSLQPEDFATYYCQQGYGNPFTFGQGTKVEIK | 0.8 fold
G6.31 LC-T31R (Fab, V domains shown, Fab) VH: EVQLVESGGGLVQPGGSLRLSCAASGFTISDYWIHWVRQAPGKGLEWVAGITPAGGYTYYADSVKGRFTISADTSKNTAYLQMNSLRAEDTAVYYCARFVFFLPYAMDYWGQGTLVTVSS VL: DIQMTQSPSSLSASVGDRVTITCRASQDVSRAVAWYQQKPGKAPKLLIYSASFLYSGVPSRFSGSGSGTDFTLTISSLQPEDFATYYCQQGYGNPFTFGQGTKVEIK | 0.9 fold
G6.31 HC-T77E (Fab, name in Kabat numbering, V domains shown, Fab) VH: EVQLVESGGGLVQPGGSLRLSCAASGFTISDYWIHWVRQAPGKGLEWVAGITPAGGYTYYADSVKGRFTISADTSKNEAYLQMNSLRAEDTAVYYCARFVFFLPYAMDYWGQGTLVTVSS VL: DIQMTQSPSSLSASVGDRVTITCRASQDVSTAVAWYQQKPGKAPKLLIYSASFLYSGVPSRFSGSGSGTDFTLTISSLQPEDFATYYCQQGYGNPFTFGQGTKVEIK | 0.9 fold
G6.31 HC-Y56K (Fab, name in Kabat numbering, V domains shown, Fab) VH: EVQLVESGGGLVQPGGSLRLSCAASGFTISDYWIHWVRQAPGKGLEWVAGITPAGGKTYYADSVKGRFTISADTSKNTAYLQMNSLRAEDTAVYYCARFVFFLPYAMDYWGQGTLVTVSS VL: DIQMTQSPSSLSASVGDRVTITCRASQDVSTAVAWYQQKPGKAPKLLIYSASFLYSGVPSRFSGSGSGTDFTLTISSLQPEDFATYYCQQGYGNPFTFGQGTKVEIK | 1.8 fold
G6.31 LC-Y55E (Fab, V domains shown, Fab) VH: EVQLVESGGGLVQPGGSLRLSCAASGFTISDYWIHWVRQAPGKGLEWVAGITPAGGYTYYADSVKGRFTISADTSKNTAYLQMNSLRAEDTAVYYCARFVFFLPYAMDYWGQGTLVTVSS VL: DIQMTQSPSSLSASVGDRVTITCRASQDVSTAVAWYQQKPGKAPKLLIYSASFLESGVPSRFSGSGSGTDFTLTISSLQPEDFATYYCQQGYGNPFTFGQGTKVEIK | 0.1 fold
G6.31 HC-T68K (Fab, name in Kabat numbering, V domains shown, Fab) VH: EVQLVESGGGLVQPGGSLRLSCAASGFTISDYWIHWVRQAPGKGLEWVAGITPAGGYTYYADSVKGRFKISADTSKNTAYLQMNSLRAEDTAVYYCARFVFFLPYAMDYWGQGTLVTVSS VL: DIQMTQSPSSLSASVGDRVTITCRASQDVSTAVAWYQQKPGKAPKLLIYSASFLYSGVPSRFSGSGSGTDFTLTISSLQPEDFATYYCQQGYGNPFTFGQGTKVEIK | 1.3 fold
G6.31 HC-A40E (Fab, name in Kabat numbering, V domains shown, Fab) VH: EVQLVESGGGLVQPGGSLRLSCAASGFTISDYWIHWVRQEPGKGLEWVAGITPAGGYTYYADSVKGRFTISADTSKNTAYLQMNSLRAEDTAVYYCARFVFFLPYAMDYWGQGTLVTVSS VL: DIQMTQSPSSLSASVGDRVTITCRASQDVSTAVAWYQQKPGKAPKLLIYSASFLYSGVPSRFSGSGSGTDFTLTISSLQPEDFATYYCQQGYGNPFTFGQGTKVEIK | 0.6 fold
G6.31 LC-S77E (Fab, V domains shown, Fab) VH: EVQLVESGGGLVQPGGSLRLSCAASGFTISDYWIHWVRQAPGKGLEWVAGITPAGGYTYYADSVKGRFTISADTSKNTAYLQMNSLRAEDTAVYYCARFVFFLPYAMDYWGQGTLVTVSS VL: DIQMTQSPSSLSASVGDRVTITCRASQDVSTAVAWYQQKPGKAPKLLIYSASFLYSGVPSRFSGSGSGTDFTLTISELQPEDFATYYCQQGYGNPFTFGQGTKVEIK | 3 fold
G6.31 LC-Y92E (Fab, V domains shown, Fab) VH: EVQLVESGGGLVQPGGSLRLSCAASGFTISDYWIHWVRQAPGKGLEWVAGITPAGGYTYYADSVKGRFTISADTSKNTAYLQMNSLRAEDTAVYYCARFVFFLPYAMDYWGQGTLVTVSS VL: DIQMTQSPSSLSASVGDRVTITCRASQDVSTAVAWYQQKPGKAPKLLIYSASFLYSGVPSRFSGSGSGTDFTLTISSLQPEDFATYYCQQGEGNPFTFGQGTKVEIK | 0.8 fold
G6.31 HC-S30E (Fab, name in Kabat numbering, V domains shown, Fab) VH: EVQLVESGGGLVQPGGSLRLSCAASGFTIEDYWIHWVRQAPGKGLEWVAGITPAGGYTYYADSVKGRFTISADTSKNTAYLQMNSLRAEDTAVYYCARFVFFLPYAMDYWGQGTLVTVSS VL: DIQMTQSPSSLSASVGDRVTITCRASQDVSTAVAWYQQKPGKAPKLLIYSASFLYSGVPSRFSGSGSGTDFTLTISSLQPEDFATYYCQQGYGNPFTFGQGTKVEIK | 0.2 fold
